Hey, just so you know, these numbers are from paper PMC5063714.

pIC50 overview
Tested system: T1, chromodomain of CDYL2 (human, UniProt Q8N8U2 1-75)
T1 sequence (looked up): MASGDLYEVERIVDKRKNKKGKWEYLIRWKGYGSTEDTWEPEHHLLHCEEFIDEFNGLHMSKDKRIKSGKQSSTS
Protocol text: AlphaScreen or HTRF
Square brackets hold non-standard residues; d marks the D form. Lys(Me3) = C[N+](C)(C)CCCC[C@H](N)C(=O)O; diethyl = not defined here
The quantity pIC50 is defined as the negative base-10 logarithm of the molar concentration.

{4‑iPr‑Bz}-FALK(diethyl)S-OMe (reading uncertain) [compound 32] | 7.00
{3‑Me‑Bz}-FALK(diethyl)S-OMe (reading uncertain) [compound 29] | 6.47
FALKS (N-terminal para-t-butyl benzoyl cap; diethyl-lysine in lieu of Kme3; C-terminal methyl ester) [compound 1 (UNC3866)] | 6.85

Recorded result, {4‑tBu‑Bz}-FAL[Lys(Me3)]S-OMe [compound 39] , pIC50: 6.96

pIC50 reported for this binder {4‑Et‑Bz}-FALK(diethyl)S-OMe (reading uncertain) [compound 31] : 7.00
